# system.under.test: human VR1 (Homo sapiens, UniProt Q8NER1)
# Sequence (Q8NER1 whole entry): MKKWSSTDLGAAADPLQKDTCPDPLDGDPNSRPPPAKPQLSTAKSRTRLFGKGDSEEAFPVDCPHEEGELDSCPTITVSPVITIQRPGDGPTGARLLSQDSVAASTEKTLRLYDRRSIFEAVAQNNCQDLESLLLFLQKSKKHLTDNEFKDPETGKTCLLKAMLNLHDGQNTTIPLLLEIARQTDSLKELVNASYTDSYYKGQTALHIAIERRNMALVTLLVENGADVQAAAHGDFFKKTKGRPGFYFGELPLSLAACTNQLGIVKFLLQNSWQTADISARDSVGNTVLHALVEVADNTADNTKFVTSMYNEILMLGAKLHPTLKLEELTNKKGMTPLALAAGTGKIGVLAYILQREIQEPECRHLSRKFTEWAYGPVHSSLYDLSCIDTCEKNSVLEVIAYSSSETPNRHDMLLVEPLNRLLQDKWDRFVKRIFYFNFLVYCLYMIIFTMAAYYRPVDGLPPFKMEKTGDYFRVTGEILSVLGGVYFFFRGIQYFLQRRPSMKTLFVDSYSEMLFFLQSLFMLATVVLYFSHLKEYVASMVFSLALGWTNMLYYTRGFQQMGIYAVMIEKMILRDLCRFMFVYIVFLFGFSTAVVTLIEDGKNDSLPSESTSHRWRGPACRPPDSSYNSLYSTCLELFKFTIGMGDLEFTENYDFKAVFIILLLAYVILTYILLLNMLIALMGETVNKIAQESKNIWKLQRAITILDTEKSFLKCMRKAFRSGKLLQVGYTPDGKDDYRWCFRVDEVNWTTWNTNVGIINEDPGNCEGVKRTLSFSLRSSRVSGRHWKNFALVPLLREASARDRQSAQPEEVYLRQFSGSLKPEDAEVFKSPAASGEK
# method.description: Inhibition of Ca2+ entry in cells caused by proton, in rat glioma (C6BU1) cells stably expressing human VR1 (Fura 2 fluorescence)
# measurement.context: inhibition of proton-induced Ca2+ entry
Exercise: for every item that follows, state its recorded IC50.

Before answering, review these 7 worked examples.
query.smiles | IC50
Cc1ccc(N2CCOc3c(C(=O)NCCc4cccc(Cl)c4)cccc32)nc1 | < 100 nM
CC(C)(C)c1ccc(NC(=O)c2cccc3c2OCCN3c2ncccc2Cl)cc1 | < 100 nM
Cc1ccc(N2c3cccc(C(=O)Nc4ccc(C(F)(F)F)c(F)c4)c3OC[C@@H]2CO)nc1 | < 100 nM
Cc1cnc(N2c3cccc(C(=O)Nc4ccc(Br)c(F)c4)c3OC[C@@H]2CO)s1 | < 100 nM
O=C(N[C@H]1CC[C@H](OC2CCCC2)CC1)c1cccc2c1OCCN2c1ncccc1Cl | 100 to 1000 nM
CC(C)(C)c1ccc(NC(=O)c2cccc3c2OCCN3c2ccccn2)cc1 | < 100 nM
CCOc1ccc(N2CCOc3c(C(=O)Nc4ccc(OC(F)(F)F)cc4)cccc32)nc1 | 100 to 1000 nM

Reported IC50 of COc1ccc(N2CCOc3c(C(=O)Nc4ccc(C(C)(C)C)cc4)cccc32)cc1 : < 100 nM

---

# system.under.test: human VR1 (Homo sapiens)
# method.description: Inhibition of Ca2+ entry in cells caused by proton, in rat glioma (C6BU1) cells stably expressing human VR1 (Fura 2 fluorescence)
# measurement.context: inhibition of proton-induced Ca2+ entry
# Protocol: The assay for evaluation of VR1 inhibition by the inventive compounds will be described below. The assay was intended to evaluate in vitro inhibition of Ca^2+ entry in cells caused by proton, one of the VR1 agonists. Rat glioma (C6BU1) cells stably expressing human VR1 were suspended in 20 mM MES buffer (at pH 6.8, contg. 20 mM 2-morpholinoethanesulfonate (referred to as MES hereinafter), 115 mM NaCl, 5 mM KCl, 1 mM MgCl2 and 14 mM D-glucose) to make a cell density of 1×10^6 cells/mL. […]
pIC50: −log10 of the molar value.
Provide the recorded pIC50 for the entries that follow.

compound | measured.value
Cc1ccc(N2CCOc3c(C(=O)NN4CCC(C(C)(C)C)CC4)cccc32)nc1 [Example 1-152] | 6.00 to 7.00
Cc1ccc(N2CCOc3c(C(=O)N[C@H]4CC[C@H](COC(C)C)CC4)cccc32)nc1 [Example 1-183] | 6.00 to 7.00
CC(C)(C)C1CCC(NC(=O)c2cccc3c2OCCN3c2ncc(CO)cc2Cl)CC1 (stereo not shown) [Example 2-33] | > 7.00

Kindly give each listed record's pIC50.
1. O=C(Nc1ccc(Cl)c(C(F)(F)F)c1)c1cccc2c1OC[C@H](CO)N2c1ncccc1Cl [Example 4-35]
2. Cc1ccc(N2CCOc3c(C(=O)Nc4ccc(N(C)C)c(F)c4)cccc32)nc1 [Example 1-163]
3. O=C(Nc1ccc(Cl)cc1)c1cccc2c1OC[C@H](CO)N2c1ncccc1Cl [Example 4-16]
4. CC(C)Oc1cccc(NC(=O)c2cccc3c2OCCN3c2ncccc2Cl)c1 [Example 1-044]
5. O=C(Nc1ccc(Br)c(Cl)c1)c1cccc2c1OC[C@H](CO)N2c1ncccc1Cl [Example 4-19]

Output line:
["> 7.00", "> 7.00", "> 7.00", "> 7.00", "> 7.00"]

Batch of 4 compounds: report pIC50 for each.
1. CN1CCCc2ccc(NC(=O)c3cccc4c3OCCN4c3ncccc3Cl)cc21 [Example 1-033]
2. COc1cnc(N2c3cccc(C(=O)Nc4ccc(OC(F)(F)F)cc4)c3OC[C@@H]2CO)c(Cl)c1 [Example 4-26]
3. Cc1ccc(N2c3cccc(C(=O)Nc4ccc(N5CCOCC5)c(C(F)(F)F)c4)c3OC[C@@H]2CO)nc1 [Example 4-29]
4. Cc1ccc(N2c3cccc(C(=O)Nc4ccc(OCC(C)C)c(F)c4)c3OC[C@@H]2CO)nc1 [Example 4-54]

Output line:
> 7.00
> 7.00
> 7.00
> 7.00

Below are 4 compounds. Give each one its pIC50.
1. O=C(Nc1ccc(OC(F)(F)F)cc1)c1cccc2c1OCCN2c1ccc(O)cn1 [Example 1-201]
2. Cc1ccc(N2c3cccc(C(=O)Nc4ccc(OC(C)C)c(C(F)(F)F)c4)c3OC[C@@H]2CO)nc1 [Example 4-38]
3. O=C(Nc1ccc(C(F)(F)F)c(F)c1)c1cccc2c1OCCN2c1ncc(CO)cc1Cl [Example 2-06]
4. Cc1ccc(N2CCOc3c(C(=O)NCCc4ccccc4Cl)cccc32)nc1 [Example 1-127]

Output line:
["6.00 to 7.00", "> 7.00", "> 7.00", "> 7.00"]

---

# system.under.test: human VR1 (Homo sapiens)
# Construct: expressed in transfected cells
# method.description: Inhibition of Ca2+ entry in cells caused by proton, in rat glioma (C6BU1) cells stably expressing human VR1 (Fura 2 fluorescence)
# Assay type: cell-based
# measurement.context: inhibition of proton-induced Ca2+ entry
pIC50: −log10 of the molar value.
Give measured pIC50 for each item. Keep answers brief.

Worked set:
query.smiles | assay.readout | measured.value
O=C(Nc1cccc(OC(F)(F)F)c1)c1cccc2c1OCCN2c1ncc(CO)cc1Cl | pIC50 | > 7.00
O=C(Nc1ccc(C(F)(F)F)nc1)c1cccc2c1OCCN2c1ncccc1Cl | pIC50 | > 7.00
CN(C)c1ccc(NC(=O)c2cccc3c2OC[C@H](CO)N3c2ncccc2Cl)cc1F | pIC50 | > 7.00
O=C(Nc1ccc(Cl)cc1)c1cccc2c1OC[C@H](CO)N2c1ccc(Cl)cc1 | pIC50 | > 7.00
O=C(Nc1ccc(Br)c(F)c1)c1cccc2c1OCCN2c1ncc(CO)cc1Cl | pIC50 | > 7.00
O=C(Nc1ccc2c(c1)OCO2)c1cccc2c1OCCN2c1ncc(CO)cc1Cl | pIC50 | 6.00 to 7.00
O=C(Nc1ccc(C(F)(F)F)cn1)c1cccc2c1OCCN2c1ncccc1Cl | pIC50 | > 7.00
O=C(Nc1ccc(C(F)(F)F)cc1)c1cccc2c1OC[C@H](CO)N2c1ncccc1Cl | pIC50 | > 7.00

# return pIC50 for each item in the list
1. Cc1ccc(NC(=O)c2cccc3c2OCCN3c2ncccc2Cl)cc1
2. Cc1ccc(N2CCOc3c(C(=O)N[C@H]4CC[C@H](OCc5ccccc5)CC4)cccc32)nc1
3. COC(C)(C)c1ccc(NC(=O)c2cccc3c2OCCN3c2ccc(C)cn2)cc1
4. CC(C)COc1ccc(NC(=O)c2cccc3c2OCCN3c2ccc(CO)cn2)cc1
5. O=C(N[C@H]1CC[C@H](OC2CCCCC2)CC1)c1cccc2c1OCCN2c1ncccc1Cl

Output line:
["> 7.00", "6.00 to 7.00", "> 7.00", "> 7.00", "6.00 to 7.00"]

Batch request: pIC50 for each of the following compounds.
1. O=C(Nc1ccc(OC(F)(F)F)cc1)c1cccc2c1OCCN2c1ccc(OCCO)cn1
2. Cc1nc(N2c3cccc(C(=O)Nc4ccc(OC(F)(F)F)cc4)c3OC[C@@H]2CO)sc1C
3. CC(C)(C)c1ccc(NC(=O)c2cccc3c2OCCN3c2ncccc2C(F)(F)F)cc1
4. Cc1ccc(N2CCOc3c(C(=O)Nc4ccc(N5CCC(OC(C)C)CC5)c(F)c4)cccc32)nc1
5. CN1CCN(c2ncccc2Cl)c2cccc(C(=O)Nc3ccc(C(C)(C)C)cc3)c21

Output line:
["6.00 to 7.00", "> 7.00", "> 7.00", "> 7.00", "> 7.00"]

---

# system.under.test: UniProtKB Q8NER1
# method.description: Inhibition of Ca2+ entry in cells caused by proton, in rat glioma (C6BU1) cells stably expressing human VR1 (Fura 2 fluorescence)
# measurement.context: inhibition of proton-induced Ca2+ entry
Answer each item with its documented IC50.

Below are worked cases with known answers.
compound | IC50
O=C(Nc1ccc(N2CCOCC2)cc1)c1cccc2c1OCCN2c1ncccc1Cl [Example 1-050] | 100 to 1000 nM
CC(C)(C)c1ccc(NC(=O)c2cccc3c2OCCN3c2ncc(CO)cc2Cl)cc1 [Example 2-36] | < 100 nM
Cc1ccc(N2c3cccc(C(=O)Nc4ccc(Cl)c(Cl)c4)c3OC[C@@H]2CO)nc1 [Example 4-32] | < 100 nM
O=C(Nc1ccc(Cl)cc1)c1cccc2c1OCCN2c1ncccc1Cl [Example 1-006] | < 100 nM
O=C(O)c1ccc(N2CCOc3c(C(=O)Nc4ccc(C(F)(F)F)cc4)cccc32)nc1 [Example 1-128] | 100 to 1000 nM
O=C(Nc1ccc(C(F)(F)F)c(F)c1)c1cccc2c1OC[C@H](CO)N2c1ncccc1Cl [Example 4-53] | < 100 nM
O=C(Nc1ccc(C(F)(F)F)cc1)c1cccc2c1OCCN2c1ccc(OCCO)cn1 [Example 1-153] | 100 to 1000 nM

Okay, now this compound:
Reading of IC50 for O=C(Nc1ccc(F)c(C(F)(F)F)c1)c1cccc2c1OCCN2c1ncccc1Cl [Example 1-053] with UniProtKB Q8NER1: < 100 nM
